# tgt: DRAK2 (Homo sapiens (Human), UniProt O94768)
# Sequence (O94768 whole entry): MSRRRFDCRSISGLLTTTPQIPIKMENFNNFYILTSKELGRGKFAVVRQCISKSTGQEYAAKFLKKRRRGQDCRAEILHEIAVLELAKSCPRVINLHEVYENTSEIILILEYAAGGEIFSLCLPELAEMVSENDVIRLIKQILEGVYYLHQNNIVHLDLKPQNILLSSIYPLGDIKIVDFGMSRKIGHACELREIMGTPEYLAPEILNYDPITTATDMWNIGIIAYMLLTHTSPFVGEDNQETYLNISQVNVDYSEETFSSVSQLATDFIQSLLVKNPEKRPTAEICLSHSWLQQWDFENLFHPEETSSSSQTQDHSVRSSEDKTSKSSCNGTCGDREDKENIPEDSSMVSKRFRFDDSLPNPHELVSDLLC
# protocol: DRAK2 kinase activity inhibition (ADP-Glo, MRCL3 peptide substrate)
# Type: biochemical
# conditions: Table 3; recombinant enzyme, 1 uM ATP, 1 uM MRCL3 peptide, 30° C., 2 hours
pIC50: −log10 of the molar value.
Readings of pIC50 for the listed compounds
parameter: pIC50

In [3]: df
Out[3]:
                                   compound                                       tgt  recorded_value
0  NCCCNc1nc(Nc2ccc(Cl)cc2)ncc1Br [Comparative Example 6, reference compound]  DRAK2 (Homo sapiens (Human), UniProt O94768)            7.57
1            NCCCNc1nc(Nc2ccc(Cl)cc2)ncc1Cl  DRAK2 (Homo sapiens (Human), UniProt O94768)            7.42
2       CC(C)c1ccc(Nc2ncc(Cl)c(NCCCN)n2)cc1  DRAK2 (Homo sapiens (Human), UniProt O94768)            7.96
3              Cc1cnc(Nc2ccc(F)cc2)nc1NCCCN  DRAK2 (Homo sapiens (Human), UniProt O94768)            6.72
4          Cc1cnc(Nc2ccc(F)c(Cl)c2)nc1NCCCN  DRAK2 (Homo sapiens (Human), UniProt O94768)            7.46

* * *

# tgt: DRAK2 (Homo sapiens (Human), UniProt O94768)
# protocol: DRAK2 kinase activity inhibition (ADP-Glo, MRCL3 peptide substrate)
# Format: biochemical
# conditions: Table 3; recombinant enzyme, 1 uM ATP, 1 uM MRCL3 peptide, 30° C., 2 hours
# Method: DRAK1 and DRAK2 recombinant proteins were purchased from SignalChem Inc. To measure the kinase enzyme activity, the ADP-Glo™ kit provided by Promega Inc. was used. […] To measure the DRAK1 and DRAK2 activity, the substrate MRCL3 peptide and ATP were mixed with the enzymes. After an appropriate period of time, the reaction product ADP was quantitatively analyzed. […] 2 hours later, the enzyme reaction was terminated. […] Then, IC50 of each compound was determined using Prism program. […]
pIC50: −log10 of the molar value.
parameter: pIC50

In [3]: df
Out[3]:
                                   molecule                                       tgt  recorded_value
0  NCCCNc1nc(Nc2ccc3c(c2)CCC3)ncc1Cl [Example 21]  DRAK2 (Homo sapiens (Human), UniProt O94768)            7.68
1  NCCCNc1nc(Nc2ccc(Cl)c(Cl)c2)ncc1Cl [Example 8]  DRAK2 (Homo sapiens (Human), UniProt O94768)            7.23
2  NCCCNc1nc(Nc2ccc(F)c(Cl)c2)ncc1Cl [Example 7]  DRAK2 (Homo sapiens (Human), UniProt O94768)            7.15
3  NCCCNc1nc(Nc2ccc3c(c2)OCCO3)ncc1Cl [Example 22]  DRAK2 (Homo sapiens (Human), UniProt O94768)            7.62
4  CCCCCCCCc1ccc(Nc2ncc(Cl)c(NCCCN)n2)cc1 [Example 5]  DRAK2 (Homo sapiens (Human), UniProt O94768)            6.13

Origin of the recorded values: patent US10647686B2
